Biological target: mouse TMEM16A mutant V511A (Mus musculus, UniProt Q8BHY3, V511A)
Construct: expressed in transfected cells; host or cells: HEK293T
Assay: Inside-out patch recording of 1PBC block, mutant V511A
Type: cell-based
Conditions: V511A; V 80 mV
assay metric: IC50 (µM)

- N#Cc1c(C(F)(F)F)cc(O)n2c1nc1ccccc12 [1PBC]: 8.67

====

Target: mouse TMEM16A mutant R515A (Mus musculus, UniProt Q8BHY3, R515A)
Construct: expressed in transfected cells; host or cells: HEK293T
Sequence (Q8BHY3 1-960 R515A): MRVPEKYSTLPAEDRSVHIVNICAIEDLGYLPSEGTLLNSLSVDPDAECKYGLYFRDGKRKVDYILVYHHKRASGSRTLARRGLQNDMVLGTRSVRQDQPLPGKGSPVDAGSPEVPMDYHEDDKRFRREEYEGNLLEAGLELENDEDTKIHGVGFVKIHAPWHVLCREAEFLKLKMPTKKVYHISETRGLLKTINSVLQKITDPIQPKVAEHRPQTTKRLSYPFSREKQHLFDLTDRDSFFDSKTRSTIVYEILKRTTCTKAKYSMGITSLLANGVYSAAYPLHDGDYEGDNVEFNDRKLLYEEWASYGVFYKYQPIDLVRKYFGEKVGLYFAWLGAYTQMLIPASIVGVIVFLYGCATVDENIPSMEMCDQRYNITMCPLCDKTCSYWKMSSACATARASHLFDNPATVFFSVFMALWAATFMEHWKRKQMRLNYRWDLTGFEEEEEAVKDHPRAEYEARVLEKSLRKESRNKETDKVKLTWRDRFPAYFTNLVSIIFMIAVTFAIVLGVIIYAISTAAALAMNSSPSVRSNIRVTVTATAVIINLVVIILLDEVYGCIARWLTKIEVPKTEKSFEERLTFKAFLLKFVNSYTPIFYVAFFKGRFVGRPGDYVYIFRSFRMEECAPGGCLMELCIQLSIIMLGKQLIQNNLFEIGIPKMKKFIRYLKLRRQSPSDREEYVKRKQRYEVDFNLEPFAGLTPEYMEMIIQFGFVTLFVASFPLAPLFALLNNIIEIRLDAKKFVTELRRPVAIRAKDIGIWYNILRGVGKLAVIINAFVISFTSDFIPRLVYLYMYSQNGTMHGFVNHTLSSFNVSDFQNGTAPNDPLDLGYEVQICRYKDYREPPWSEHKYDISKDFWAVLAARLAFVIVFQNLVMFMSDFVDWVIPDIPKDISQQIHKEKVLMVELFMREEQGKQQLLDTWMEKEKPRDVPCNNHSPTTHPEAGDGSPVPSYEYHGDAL
Experiment: Inside-out patch recording of 1PBC block, mutant R515A
Assay type: cell-based
Details: R515A; V 100 mV
pIC50: −log10 of the molar value.
assay metric: pIC50

- N#Cc1c(C(F)(F)F)cc(O)n2c1nc1ccccc12: 4.05

====

Target: mouse TMEM16A mutant I516A (Mus musculus, UniProt Q8BHY3, I516A)
Construct: expressed in transfected cells; host or cells: HEK293T
Test: Inside-out patch recording of 1PBC block, mutant I516A
Format: cell-based
Settings: I516A; V -20 mV
Procedure: HEK293T cells (ATCC CRL-1573) were maintained in Dulbecco’s modified Eagle’s medium (DMEM; Sigma-Aldrich) supplemented with 10 U ml^−1 penicillin, 0.1 mg ml^−1 streptomycin (Sigma-Aldrich), 2 mM L-glutamine (Sigma-Aldrich), and 10% FBS (Sigma-Aldrich) in a humidified atmosphere containing 5% CO2 at 37 °C. […]
assay metric: IC50

• N#Cc1c(C(F)(F)F)cc(O)n2c1nc1ccccc12 = 6.57 µM
